Conditions: basic group
Below, each entry is listed alongside its reported pKa.
The answer should be a number; do not append a unit.

molecule=O=C([O-])c1ccc2nc3ccccc3cc2c1 endpoint_value=5.22
molecule=Cc1ccc(C(C)C)c(OCCN(C)C)c1 endpoint_value=8.66
molecule=NCCC[n+]1ccc2c([N+](=O)[O-])cccc2c1 endpoint_value=8.48
molecule="CS(=O)Cc1ccccn1 (stereo unspecified)" endpoint_value=3.1
molecule=COc1c(C)ncc(CO)c1C=O endpoint_value=4.75
molecule=CCCCc1ccc(C(=O)[O-])nc1 endpoint_value=5.7
molecule=Nc1ncnc2c1nnn2Cc1ccco1 endpoint_value=2.6
molecule="O=[N+]([O-])c1ccc(C2NCCS2)cc1 (stereo unspecified)" endpoint_value=4.55

Which pKa is listed for "CNCCCN" ? 10.7

Request the reported pKa associated with "[NH3+][C@@H](Cc1nc[nH]c1I)C(=O)[O-]" 4.18

Can you share its pKa? I mean this molecule: CC(CC(C#N)(c1ccccc1)c1ccccc1)N1CCOCC1 (stereo unspecified) 6.1

pKa lookup needed for "CCc1nc(C)c[nH]1" , thanks. 8.5

So what does the record say about pKa for "CN(C)c1ncnc2[nH]ncc12" ? 4.53

---

Conditions: basic group
Parameter: pKa. Scope: all listed entries.
Just the number, please, no unit after it.

compound=Cc1cnc2c(C)ccc([N+](=O)[O-])c2c1NCCC[NH+](C)C endpoint_value=6.1
compound=COC(=O)[C@@H]1[C@H](O)C[C@@H]2CC[C@H]1N2C endpoint_value=8.85
compound=N[C@H]1C[C@@H]1[NH3+] endpoint_value=5.9
compound=[O-]c1cnc2ccccc2n1 endpoint_value=9.1
compound=[O-]c1ncnc2nc[nH]c12 endpoint_value=8.81

Now consider the entry below.
Query: pKa; subject: "N/N=C/c1ncnc2nc[nH]c12" 9.2

---

Conditions: basic group
Decide by pKa: equal to or exceeding 9 means rule met, less means rule not met.

Solved entries (count: 2):
molecular_string=CCCCOC(=N)c1ccccc1 classification="rule not met"
molecular_string=Nc1ccc(S(=O)(=O)Nc2cnccn2)cc1 classification="rule not met"

Tell me whether pKa is at least 9 here: "Cc1cc2ncn([C@H]3OC[C@@H](O)[C@@H](O)[C@@H]3O)c2cc1C" rule not met

---

Reported pKa by item:
Settings: acidic group
API doc: respond with a numeric literal and nothing else, no unit.

molecule=O=c1c(O)c1-c1ccccc1 test_readout=pKa endpoint_value=2.01
molecule=O=C1CSC(=S)N1 test_readout=pKa endpoint_value=6.48
molecule=OCc1nc2ccccc2[nH]1 test_readout=pKa endpoint_value=12.1
molecule=O=S(=O)(Nc1nccs1)c1ccccc1 test_readout=pKa endpoint_value=5.73
molecule="CC(=O)NC(Cc1c[nH]c[nH+]1)C(=O)O (stereo not drawn)" test_readout=pKa endpoint_value=2.94

For "CN(C)C(=O)OCC(=O)O" , what is its reported pKa? 3.01

Return reported pKa; argument: "CC(=O)c1ccc(O)c(O)c1" 7.8

Which pKa value is on record for "C[C@H](CCC(=O)O)[C@H]1CC[C@H]2[C@@H]3[C@@H](O)C[C@@H]4C[C@H](O)CC[C@]4(C)[C@H]3CC[C@]12C" ? 5.08

Entry "CC1C(=O)CC(C)(C)CC1=O" : reported pKa = ? 5.6

May I ask what pKa has been recorded for "[NH3+]c1ccc(CC(=O)O)cc1" ? 3.49

Consider the molecule shown here: "Cc1cc(C(O)=C(C#N)C#N)cc(C)c1O" What is its recorded pKa? 2.55

For "C[n+]1c(N)ccnc1[O-]" , what is its reported pKa? 13.5

---

Conditions: basic group
# if value of pKa reaches 7, tag met; if it stays below, tag not met

Assess whether reported pKa for "Cc1nnc(NS(=O)(=O)c2ccc(N)cc2)s1" sits at 7 or higher. not met

Given CC1[C@H](N)[C@H]1[NH3+] (stereo not given in full) , state whether its pKa is at least 7. not met

Exam item: decide whether the reported pKa for "N[C@H]1CCCC[C@@H]1[NH3+]" is at least 7. not met

Check the entry "CC(=O)n1ccnc1Cc1ncc[nH]1" : does pKa equal or exceed 7? not met

Please indicate if the recorded pKa for "CN1C[C@@H](C(=O)[O-])C[C@@]2(O)c3cccc4[nH]cc(c34)C[C@H]12" meets or exceeds 7. met

---

Settings: acidic group
Tag: true (1) if measured pKa is not below 8, false (0) if it is.

# example entries with known answers
molecule=O=C(O)c1cc(Cl)cc([N+](=O)[O-])c1 classification="false (0)"
molecule=NS(=O)(=O)c1nnc(Nc2ccccc2)s1 classification="false (0)"
molecule="CC(C(N)=O)S(=O)(=O)NC(N)=O (stereo not given)" classification="false (0)"
molecule=Cc1nc2ccccc2[nH+]c1O classification="false (0)"
molecule=O=C([O-])CCc1nc2ccccc2[nH]1 classification="true (1)"
molecule=N#CC(=C(O)O)c1ccccc1 classification="false (0)"

Would you say "O/C(=C/c1ccncc1)c1ccccc1" shows pKa at minimum 8? true (1)

Evaluate "Oc1ccc(F)cc1CN1CCOCC1" : pKa at minimum 8? true (1)

Quick check, pKa >= 8? "CC(=O)CC(=S)Nc1ccc(C)cc1" false (0)

Hi team, for "Cc1c(Cn2cc[nH+]c2)sc2ccc(C(=O)O)cc12" , is the recorded pKa at or above 8? false (0)

Is pKa for "N#C/C(=C\C(=O)O)c1ccccc1" at or above 8? false (0)

Determine whether measured pKa meets or exceeds 8 for "[NH3+]CCC#CC#CCCC(=O)O" false (0)

Item "O=[Se](O)c1ccccc1-c1ccccc1" with pKa of 8 or above? false (0)

---

Conditions: acidic group
Test Readout: pKa
I'd appreciate a reply containing only the number, no unit.

Could you share which pKa value was measured for "O=C(O)C[NH2+]CCc1nnn[nH]1" ? 3.28

Query: pKa; subject: "CC(=O)c1cc(C)c(C)cc1O" 11.6

GET /values?readout=pKa&item= "CC(=O)c1cc[nH]n1" 11.8

For the compound shown here, "O=C([O-])c1cccc2ccc(O)cc12" , give the reported pKa. 9.6

Quick check: pKa of CC(C#N)C(=O)O (stereo unspecified) ? 2.37

Sample "O=C1C[C@H]2C(=O)NC(=O)[C@H]2N1" — what was its pKa? 8.15

---

Conditions: acidic group
Output Fulfilled for pKa not less than 7; output Not fulfilled otherwise.

Past entries and their recorded results:
molecule=O=c1oc2cc(O)ccc2cc1-c1ccccc1 classification=Fulfilled
molecule=Oc1ccc(Br)cc1Br classification=Fulfilled

Form field: pKa at least 7? Entry: "O=C(O)c1ccc[n+]([O-])c1" Not fulfilled

Identify whether the reported pKa of the following molecule is 7 or greater: "COc1ccccc(=O)c1O" Fulfilled

Record "Nc1c(C(=O)O)[nH+]cn1[C@H]1O[C@@H](CO)[C@H](O)[C@@H]1O" ; criterion: pKa no lower than 7. Met? Not fulfilled

I'd appreciate it if you could say whether "COc1ccc(O)c([N+](=O)[O-])c1" has pKa at least equal to 7. Fulfilled

---

Details: basic group
This section presents compounds with their documented pKa values.
Keep it simple and answer with nothing but the number.

Consider the reported pKa for these compounds:
compound=CN(C)Cc1ccccc1 test_readout=pKa endpoint_value=8.97
compound=Cc1cc(-c2ccccc2)nnc1NCC[NH+]1CCOCC1 test_readout=pKa endpoint_value=4
compound=C[C@@H](O)[C@H](CCC=O)O[C@H]1O[C@H](C)[C@@H](N(C)C)[C@H](O)[C@H]1O test_readout=pKa endpoint_value=7
compound=CN(C)CCCC(=O)Oc1cccc([N+](=O)[O-])c1 test_readout=pKa endpoint_value=9.82
compound="NC(Cc1ccccc1)C(=O)[O-] (stereo not drawn)" test_readout=pKa endpoint_value=9.17
compound=Cc1ccc2nccc(NCCC[NH+](C)C)c2c1[N+](=O)[O-] test_readout=pKa endpoint_value=6.15
compound=CC(C)(C)/C(N)=N/O test_readout=pKa endpoint_value=5.8
compound=c1c(CN2CC[NH2+]CC[NH2+]CC2)n[nH]c1CN1CCNCC[NH2+]CC1 test_readout=pKa endpoint_value=6.08

Requested field: pKa. Item: "CC(=O)Nc1ccc(S(=O)(=O)Nc2ccccn2)cc1" 2.03

pKa for "Cc1cc(C)nc(NS(=O)(=O)c2ccc(N)cc2)n1" ? 2.35

Look up pKa for this compound: CC/C=C/CC1=NC(C(=O)[O-])[C@@H]2SC(C)(C)C(C(=O)[O-])N12 (stereo partly drawn) 7.8

Any idea what pKa was measured for "CCCc1nc2cc(OCC)ccc2[nH]1" ? 6.12

---

Conditions: acidic group
Test Readout: pKa
Give the value as a plain number.

compound=O=S(=O)(O)c1ccc(Br)cc1 endpoint_value=-6.72
compound=CCC(=O)NOC(=O)/C=C/c1ccccc1 endpoint_value=6.8
compound=O=C([O-])CNC(=O)CNS(=O)(=O)c1ccccc1 endpoint_value=9.65
compound=CC(C)OO endpoint_value=12.1

Item under review: "CC(=O)N1CSC[C@H]1C(=O)O" . Reported pKa? 2.94
